- protocolDescription: Absorption maximum of the compound in THF
- Format: physicochemical
experimentalEndpoint: Activity (nm)

{"compound": "Cl[B-]12n3c4c5ccc(I)cc5c3N=c3c5ccc(I)cc5c(n31)=NC1=[N+]2C(=N4)c2ccc(I)cc21 (stereo unspecified)", "experimentalEndpoint": "Activity", "readoutUnit": "nm", "measurement": 572}
{"compound": "c1ccc(O[B-]23n4c5c6ccccc6c4N=c4c6ccccc6c(n42)=NC2=[N+]3C(=N5)c3ccccc32)cc1 (stereo unspecified)", "experimentalEndpoint": "Activity", "readoutUnit": "nm", "measurement": 563}
{"compound": "CCSc1ccc2c(c1)C1=Nc3c4ccc(SCC)cc4c4n3[B-]3(Oc5ccc(C[C@H](NC(=O)OC(C)(C)C)C(=O)OC)cc5)n5c(c6cc(SCC)ccc6c5=N4)=NC2=[N+]13 (stereo partly specified)", "experimentalEndpoint": "Activity", "readoutUnit": "nm", "measurement": 581}
{"compound": "COC(=O)[C@H](Cc1ccc(O[B-]23n4c5c6c(F)c(F)c(F)c(F)c6c4N=c4c6c(F)c(F)c(F)c(F)c6c(n42)=NC2=[N+]3C(=N5)c3c(F)c(F)c(F)c(F)c32)cc1)NC(=O)OC(C)(C)C (stereo partly specified)", "experimentalEndpoint": "Activity", "readoutUnit": "nm", "measurement": 568}
{"compound": "CCSc1ccc2c(c1)C1=Nc3c4ccc(SCC)cc4c4n3[B@-]3(Oc5ccc(C[C@H](N)C(=O)OC)cc5)n5c(c6cc(SCC)ccc6c5=N4)=NC2=[N+]13", "experimentalEndpoint": "Activity", "readoutUnit": "nm", "measurement": 579}
{"compound": "Fc1c(F)c(F)c2c(c1F)C1=Nc3c4c(F)c(F)c(F)c(F)c4c4n3[B-]3(OCc5ccc6c(c5)OCCOCCOCCOCCOCCO6)n5c(c6c(F)c(F)c(F)c(F)c6c5=N4)=NC2=[N+]13 (stereo unspecified)", "experimentalEndpoint": "Activity", "readoutUnit": "nm", "measurement": 568}
